Experiment: S-(1) pharmacokinetics in mouse, plasma and brain levels after single IV dose
Assay type: in vivo, CD-1 mice
Settings: CD-1, mouse; Brain; single IV 20 mg/kg
property: AUC(0-inf)
Please state the value followed by its unit.

Challenge: AUC(0-inf) for C=C[C@H]1O[C@H]2C[C@H]3OC[C@@]3(OC(C)=O)[C@H]3[C@H](OC(=O)c4ccccc4)[C@]4(C(C)(C)O)CC(OC(=O)[C@H](O)C(CC(C)C)NC(=O)OC(C)(C)C)C(C)=C4[C@H](OC(C)=O)[C@H](O1)[C@]23C (stereo partly drawn) [S-(1)] ?
Response given: 88700 ng·h/mL

* * *

Experiment: Phase 1 Study S-(1)-01 plasma pharmacokinetics (weekly x3, 28-day cycle)
Format: in vivo, human
Conditions: human, plasma, iv, 56 mg/m2; 56 mg/m^2 i.v., first dose, 50:50 Cremophor EL-P/ethanol formulation; read-out: t1/2 (converted)
property: half-life (h)
Numbers only, in h.

Challenge: half-life for C=C[C@H]1O[C@H]2C[C@H]3OC[C@@]3(OC(C)=O)[C@H]3[C@H](OC(=O)c4ccccc4)[C@]4(C(C)(C)O)CC(OC(=O)[C@H](O)C(CC(C)C)NC(=O)OC(C)(C)C)C(C)=C4[C@H](OC(C)=O)[C@H](O1)[C@]23C (stereo partly shown) ?
Response given: 5.66

// data source = patent US10745408B2
